Parameter growth: see the listing below.
- System: RXF 393 renal
- PROTOCOL_SUMMARY: NCI-60 one-dose screen, 48 h (100 = growth as untreated, 0 = no growth, -100 = all killed)
- CONDITION_CONTEXT: 10 µM unless noted
- Experimental: Cells are grown in 96 well plates and exposed to the test compound for 48 hours. Compounds are tested at a single concentration, which is 10^-5 M for most compounds. The reported endpoint is percent growth (GI% or GIPRCNT), where numbers from 0 - 100% represent growth inhibition, and numbers from -100% - 0 represent cell death. For example, a value of 40 represents 60% growth inhibition. A value of 0 means no net growth occurred over the course of the experiment. […]
Compounds without any hit were thinned out: in the full panel of roughly 83,000, 20% have a hit.

MOLECULE_SMILES	growth (%)
COc1ccc(C(=O)/C=C/c2ccc(Cl)cc2)cc1S(=O)(=O)Nc1c(N)nc(SC)[nH]c1=O	92
CCOC(=O)c1c(C)nc2c(c1N)/C(=C/c1ccc(OC)cc1)C(=O)N2Cc1ccccc1	71.4
O=C(Nc1ncc(Cc2ccccc2)s1)c1ccc2c(c1)OCCCO2	-10
CN1CCN(C(=O)C(C)(C)c2ccc(C(=O)Nc3cn4cc(-c5ccncc5)ccc4n3)cc2)CC1	-61.1
COc1cc(C(=O)c2c(-c3ccccc3)oc3c(OC)cccc23)cc(OC)c1OC	-3.42

---

- System: DU-145 prostate
- PROTOCOL_SUMMARY: NCI-60 one-dose screen, 48 h (100 = growth as untreated, 0 = no growth, -100 = all killed)
- CONDITION_CONTEXT: 10 µM unless noted
About 83,000 compounds went through this panel and 20% of them were active in at least one assay; those are over-represented in the sample as a whole. Activity calls are given as the source filed them. The calls were made as follows: active = growth percent below 10; inactive = the rest.
Overview of recorded growth for various molecules

MOLECULE	SYSTEM_TESTED	growth
O=C1/C(=C/c2ccccc2F)CN(C(=O)C(Cl)Cl)C/C1=C\c1ccccc1F	DU-145 prostate	-63.4% (active)
O=C(CCCCCCN1CC(=O)N2[C@H](c3ccc(Br)cc3)c3[nH]c4ccccc4c3C[C@@H]2C1=O)NO	DU-145 prostate	57.5% (inactive)
C=C(C)[C@@H]1CCC[C@]2(C(=O)N3CCN(C)CC3)CC[C@]3(C)[C@@H](CC[C@@H]4[C@@]5(C)CC/C(=N\NC(=O)c6ccncc6)C(C)(C)[C@@H]5CC[C@]43C)[C@@H]12	DU-145 prostate	100% (inactive)
CCCCNc1nnc2n(Cc3ccccc3)c(=O)c3c4c(sc3n12)CCCC4	DU-145 prostate	38.3% (inactive)
Cc1ccc2c(-n3nc(C#N)c(C#N)c3N)cc(=O)[nH]c2c1	DU-145 prostate	94% (inactive)
CCOC(=O)c1c(C)nc2c(c1N)CC(=O)N2Cc1ccc(OC)cc1	DU-145 prostate	47.4% (inactive)
O=P(O)(O)OCC1OC(n2cnc3c(NCc4ccco4)ncnc32)C(O)C1O (configuration not stated)	DU-145 prostate	-58.5% (active)
C#CC#CC#CC#CC#CC#CC#CC#CCC1OC[C@H](COC(=O)O[C@@H](C(=O)O[C@H]2C[C@@]3(O)[C@@H](OC(=O)c4ccccc4)[C@@H]4[C@]5(OC(C)=O)CO[C@@H]5C[C@H](O)[C@@]4(C)C(=O)[C@H](OC(C)=O)C(=C2C)C3(C)C)[C@@H](NC(=O)c2ccccc2)c2ccccc2)O1 (some centres not stated)	DU-145 prostate	17.3% (inactive)
O=C(/C=C/c1cccc(Cl)c1Cl)Nc1ncc(Cc2ccccc2Cl)s1	DU-145 prostate	53.3% (inactive)
O=C(C1=Cc2cc3ccccc3n2Cc2cnnn21)c1ccc(O)cc1	DU-145 prostate	89.9% (inactive)
Oc1c(CN2CCOCC2)cc(COCc2ccccc2)c2cccnc12	DU-145 prostate	38% (inactive)
COc1ccc(-c2cc(-c3ccccc3)nc(N3CCN(CCNc4ccnc5cc(Cl)ccc45)CC3)n2)cc1	DU-145 prostate	-33.4% (active)
Cc1nc2c(c(=O)[nH]1)C(c1ccccc1)c1ccc3ccccc3c1O2 (configuration not stated)	DU-145 prostate	56.2% (inactive)
Cc1nc2ccccc2c(/C=C/c2ccccc2)c1C(=O)/C=C/c1ccccc1	DU-145 prostate	12.6% (inactive)
CC1(C)N=C(N)N=C(N)N1c1ccc(CCCCc2ccccc2)c(Cl)c1	DU-145 prostate	27% (inactive)
C=CN(C(=O)N1CCN(c2cc3c(cc2F)c(=O)c(C(=O)O)cn3C2CC2)CC1)c1nc(-c2ccc(OC)cc2)cs1	DU-145 prostate	30.9% (inactive)
Cc1ccc(/C=C(\C#N)n2nnc3cc(F)c(F)cc32)cc1	DU-145 prostate	-3.37% (active)

---

- Test system: SF-539 CNS
- PROTOCOL_SUMMARY: NCI-60 one-dose screen, 48 h
- CONDITION_CONTEXT: 10 µM unless noted
This is part of a sample that, as a whole, favours compounds with a hit. Of some 83,000 tested, about 20% had one in any assay. Activity calls are given as the source filed them. How the source made its calls: active means growth percent below 10; inactive means the rest.
Classes used: y = active, n = inactive

MOLECULE	CATEGORY_LABEL
O=C1/C(=C/c2ccccc2F)CN(C(=O)C(Cl)Cl)C/C1=C\c1ccccc1F	y
CC1(C)CC[C@]2(C(=O)N[C@H](CO)Cc3ccccc3)CC[C@]3(C)C(=CC[C@@H]4[C@@]5(C)CCCNC(C)(C)[C@@H]5CC[C@]43C)[C@@H]2C1	n
CSC1=Nc2c(c(C)c(-c3ccccc3)n2CCCC(=O)O)C2=NC(=O)C[C@H](C)N12	n
O=C(CN1CCN(c2cc3c(cc2F)c(=O)c(C(=O)O)cn3C2CC2)CC1)N/N=C/c1ccco1	n
O=C(Nc1ccccc1O)c1ccc(CNC(=O)c2ccsc2Nc2ccnc(C(F)(F)F)c2)cc1	n
O=C(N/N=C\c1cccc([N+](=O)[O-])c1)N/N=C/c1cccc([N+](=O)[O-])c1	n
COc1ccc2c(c1)/C(=N/c1n[nH]c(=S)s1)C(=O)N2	n
O=C(C1=Cc2cc3ccccc3n2Cc2cnnn21)c1ccc(O)cc1	n
O=C(Nc1cc(Cl)ccc1O)c1cccc(Nc2ccnc(C(F)(F)F)c2)c1	n
O=C(C1CCCCC1)[C@@H]1[C@]2(C(=O)NC3CCCCC32)[C@@H]2CCCN2[C@@]12C(=O)NC1CCC(Cl)CC12 (some centres not stated)	y
NC1=Nc2cc(OCCCCN3Cc4ccccc4C3)c(OCC3CC3)cc2C12CCCC2	y
N#Cc1cccc(C2C3=C(COC3=O)N(CCO)c3cc4c(cc32)OCO4)c1 (configuration not stated)	y
CCn1c(-c2cc3c([nH]c4ccccc43)c(-c3cccc(O)c3)n2)n[nH]c1=S	n
CN(C)CCN1C(=O)c2cccc3c(/C=C/CN4C(=O)c5cccc6cccc(c56)C4=O)ccc(c23)C1=O	n
O=C(Nc1ncc(Cc2ccccc2)s1)c1ccc2c(c1)OCCCO2	y
C/C=C(\C)C(=O)N[C@H]1C(O)C[C@]2(C)C3CC[C@@]4(C)C(CC[C@@H]4C(C)N(C)C)C3CCC2C1O (some centres not stated)	y
CC/C=C\C[C@H](O)C/C=C1/C(=O)C=C[C@@H]1C/C=C\CCCC(=O)O	n
Cc1ccc2c(-c3nnc(N)s3)cc(=O)oc2c1C	n
C#CCNC(=O)[C@]1(C)CCC[C@@]2(C)[C@H]1CC=C1C=C(C(C)C)CC[C@@H]12	n
CNC1=CC(=O)c2c(C(=O)OC)c(C)[n+]([O-])c(C)c2C1=O	n
O=C(CCl)NNc1nccc(Nc2ccc(S(=O)(=O)Nc3ccncc3)cc2)n1	y
C=C(C)[C@@H]1CC[C@]2(COC(C)=O)CC[C@]3(C)[C@H](CC[C@@H]4[C@@]5(C)CCCN(C(C)=O)C(C)(C)[C@@H]5CC[C@]43C)[C@@H]12	n
C=CCC(CCCC)(C(=O)OCC)C(=O)OCC	n
CCCCNC(=O)Oc1ccc(/C(=C(/C)Cc2ccc(OC)cc2)c2ccc(OCCN3CCCCC3)cc2)cc1	n
C#CCO[C@H]1CC(CC#C)(CC#C)C(=O)[C@@H]2[C@H]1[C@H]1C[C@@H]3[C@@]4(C)CCC[C@@](C)(C(=O)OC)[C@@H]4CC[C@@]23C=C1C(C)C	n
Clc1ccccc1-c1cnn2cc(-c3ccccc3)cnc12	n
CCN1C(=O)N(CC)C2C1NC(=S)N2/N=C/c1ccc(C(F)(F)F)cc1 (configuration not stated)	n
Oc1c(CN2CCC(N3CCCCC3)CC2)cc(Cc2cc(CN3CCC(N4CCCCC4)CC3)c(O)c3ncccc23)c2cccnc12	y
C=CCN1C(=O)c2cccc3c(N4CCOCC4)ccc(c23)C1=O	y
CCN1CCN(CCNc2nccc(-c3c(-c4ccc(F)c(OC)c4)nc4sccn34)n2)S1(=O)=O	n
CCCC(CC)(C(=O)Nc1ccc2nc(C)cc(N)c2c1)C(=O)Nc1ccc2nc(C)cc(N)c2c1	n
CC1=C(CCC(C)NCc2ccc(OCCCN3CCCCC3)cc2)C(C)(C)CCC1 (configuration not stated)	y
Cc1cccc(N2CCC(=O)NC2=S)c1	n
Fc1ccc2[nH]cc(-c3nc(-c4c[nH]c5ccncc45)cs3)c2c1	y
Cc1c(CC(=S)N2CCOCC2)nnn1-c1cccc(C(F)(F)F)c1	n
Fc1cc(Nc2ccc3c(OCCCN4CCOCC4)cccc3n2)ccc1Cl	n
COc1ccc2nc(Cl)c(/C=C3\CC(c4ccccc4)=NN(c4ccccc4)C3=O)cc2c1	n
